Reported logD values follow for various compounds
- Assay Details: Partition coefficient, log D of the compound in hexane-buffer at pH 7.4 by isothermal saturation method
- Format: physicochemical

Molecule: CCc1ccc(NC2=NCCC3(CCCCC3)S2)cc1
logD: 1.75
//
Molecule: Nc1ccc(NC2=NCCC3(CCCCC3)S2)cc1
logD: -0.52
//
Molecule: CCNC1=NCCC2(CCCCC2)S1
logD: 0.72
//
Molecule: Fc1ccc(NC2=NCCC3(CCCCC3)S2)cc1Cl
logD: 0.95
//
Molecule: NC1=NCCC2(CCCCC2)S1
logD: 1.22
//
Molecule: Brc1ccc(NC2=NCCC3(CCCCC3)S2)cc1
logD: 1.36
//
Molecule: c1ccc(NC2=NCCC3(CCCCC3)S2)cc1
logD: 1.69
//
Molecule: COc1ccc(NC2=NCCC3(CCCCC3)S2)cc1
logD: 1.45

====

- Assay Details: Partition coefficient, log D of the compound in n-octanol-buffer at pH 7.4 by isothermal saturation method
- Assay type: physicochemical
Reported logD values follow for various compounds
Quantity Kind: logD

Molecule: COc1ccc(NC2=NCCC3(CCCCC3)S2)cc1
Quantitative Result: 0.8

Molecule: Cc1ccc(NC2=NCCC3(CCCCC3)S2)cc1
Quantitative Result: 1.56

Molecule: Cc1cccc(C(C)C)c1NC1=NCCC2(CCCCC2)S1
Quantitative Result: 2.36

Molecule: Clc1ccc(NC2=NCCC3(CCCCC3)S2)cc1Cl
Quantitative Result: 2.45

Molecule: FC(F)(F)c1ccc(NC2=NCCC3(CCCCC3)S2)cc1
Quantitative Result: 2.18

Molecule: Nc1ccc(NC2=NCCC3(CCCCC3)S2)cc1
Quantitative Result: 1.88

Molecule: CNC1=NCCC2(CCCCC2)S1
Quantitative Result: 0.88

Molecule: CC(=O)c1cccc(NC2=NCCC3(CCCCC3)S2)c1
Quantitative Result: 2.37

Molecule: Fc1ccc(NC2=NCCC3(CCCCC3)S2)cc1Cl
Quantitative Result: 2.03

Molecule: CC(=O)c1ccc(NC2=NCCC3(CCCCC3)S2)cc1
Quantitative Result: 1.97

Molecule: CCc1cccc(CC)c1NC1=NCCC2(CCCCC2)S1
Quantitative Result: 1.88

Molecule: c1ccc(NC2=NCCC3(CCCCC3)S2)cc1
Quantitative Result: 1.02

Molecule: CCc1ccc(NC2=NCCC3(CCCCC3)S2)cc1
Quantitative Result: 2.31

Molecule: Cc1cc(C)c(NC2=NCCC3(CCCCC3)S2)c(C)c1
Quantitative Result: 2.05

Molecule: Oc1ccc(NC2=NCCC3(CCCCC3)S2)cc1
Quantitative Result: 1.96

Molecule: O=C(NC1=NCCC2(CCCCC2)S1)c1ccccc1
Quantitative Result: 1.55

Molecule: Brc1ccc(NC2=NCCC3(CCCCC3)S2)cc1
Quantitative Result: 2.53

Molecule: CCNC1=NCCC2(CCCCC2)S1
Quantitative Result: 1.38

Molecule: Cc1ccc(NC2=NCCC3(CCCCC3)S2)cc1Cl
Quantitative Result: 2.44

Molecule: Clc1ccc(NC2=NCCC3(CCCCC3)S2)cc1
Quantitative Result: 2.5

Molecule: CC(C)c1ccc(NC2=NCCC3(CCCCC3)S2)cc1
Quantitative Result: 1.57

Molecule: NC1=NCCC2(CCCCC2)S1
Quantitative Result: 1.57

====

Reported logD values follow for various molecules
- Assay Details: Partition coefficient, log D of the compound in hexane-buffer at pH 7.4 by isothermal saturation method
- Type: physicochemical

Molecule: Clc1ccc(NC2=NCCC3(CCCCC3)S2)cc1
logD: 1.34
//
Molecule: Cc1cccc(C(C)C)c1NC1=NCCC2(CCCCC2)S1
logD: 1.5
//
Molecule: CC(=O)c1ccc(NC2=NCCC3(CCCCC3)S2)cc1
logD: 1.88
//
Molecule: Cc1ccc(NC2=NCCC3(CCCCC3)S2)cc1
logD: 1.48
//
Molecule: CC(C)c1ccc(NC2=NCCC3(CCCCC3)S2)cc1
logD: 1.45
//
Molecule: FC(F)(F)c1ccc(NC2=NCCC3(CCCCC3)S2)cc1
logD: 1.31
//
Molecule: Cc1cc(C)c(NC2=NCCC3(CCCCC3)S2)c(C)c1
logD: 1.48
//
Molecule: Cc1ccc(NC2=NCCC3(CCCCC3)S2)cc1Cl
logD: 0.91
//
Molecule: Clc1ccc(NC2=NCCC3(CCCCC3)S2)cc1Cl
logD: 1.24
//
Molecule: O=C(NC1=NCCC2(CCCCC2)S1)c1ccccc1
logD: 1.51
//
Molecule: CNC1=NCCC2(CCCCC2)S1
logD: 0.91
//
Molecule: CC(=O)c1cccc(NC2=NCCC3(CCCCC3)S2)c1
logD: 1.31
//
Molecule: CCc1cccc(CC)c1NC1=NCCC2(CCCCC2)S1
logD: 1.28

====

- Tested on: Brain
- Assay Details: Inhibition of glutamate-induced [45Ca2+] uptake in synaptosomes in rat brain cortex assessed as biological activity coefficients (K43/21) after 5 mins by scintillation counting relative to control
- Assay type: functional, subcellular
- Design: concentration or dose not given beside the values

Molecule: CCc1cccc(CC)c1NC1=NCCC2(CCCCC2)S1
Activity: 3.5%

Molecule: CCc1ccc(NC2=NCCC3(CCCCC3)S2)cc1
Activity: 0%

Molecule: c1ccc(NC2=NCCC3(CCCCC3)S2)cc1
Activity: 33.2%

Molecule: Cc1ccc(NC2=NCCC3(CCCCC3)S2)cc1Cl
Activity: 45.9%

Molecule: CC(C)c1ccc(NC2=NCCC3(CCCCC3)S2)cc1
Activity: 0%

Molecule: FC(F)(F)c1ccc(NC2=NCCC3(CCCCC3)S2)cc1
Activity: 42.1%

Molecule: CC(=O)c1ccc(NC2=NCCC3(CCCCC3)S2)cc1
Activity: 45.1%

Molecule: Cc1cc(C)c(NC2=NCCC3(CCCCC3)S2)c(C)c1
Activity: 2.6%

Molecule: Clc1ccc(NC2=NCCC3(CCCCC3)S2)cc1
Activity: 12.7%

Molecule: Cc1cccc(C(C)C)c1NC1=NCCC2(CCCCC2)S1
Activity: 5.4%

Molecule: CNC1=NCCC2(CCCCC2)S1
Activity: 134%

Molecule: Oc1ccc(NC2=NCCC3(CCCCC3)S2)cc1
Activity: 73.5%

Molecule: Cc1ccc(NC2=NCCC3(CCCCC3)S2)cc1
Activity: 20.4%

Molecule: Fc1ccc(NC2=NCCC3(CCCCC3)S2)cc1Cl
Activity: 81.5%

Molecule: COc1ccc(NC2=NCCC3(CCCCC3)S2)cc1
Activity: 45.7%

Molecule: Clc1ccc(NC2=NCCC3(CCCCC3)S2)cc1Cl
Activity: 76.9%

Molecule: Brc1ccc(NC2=NCCC3(CCCCC3)S2)cc1
Activity: 56.5%

Molecule: CCNC1=NCCC2(CCCCC2)S1
Activity: 65.3%

Molecule: CC(=O)c1cccc(NC2=NCCC3(CCCCC3)S2)c1
Activity: 67.3%

Molecule: Nc1ccc(NC2=NCCC3(CCCCC3)S2)cc1
Activity: 115%

Molecule: NC1=NCCC2(CCCCC2)S1
Activity: 91.4%

Molecule: O=C(NC1=NCCC2(CCCCC2)S1)c1ccccc1
Activity: 78.1%
